Tested on: Plasmodium falciparum
Experiment: Antiplasmodial activity against Plasmodium falciparum 3D7 infected in human erythrocytes after 48 hrs by [3H]hypoxanthine incorporation assay
Assay type: functional, organism-based
observation_type: IC50 (µM)

* COC(=O)[C@H]1Cc2c([nH]c3ccccc23)[C@@H](c2c(CO)cnc(C)c2O)N1 | 108

1: COC(=O)[C@H]1Cc2c([nH]c3ccccc23)[C@H](c2c(CO)cnc(C)c2O)N1
2: COC(=O)[C@@H]1Cc2c([nH]c3ccccc23)[C@H](c2c(CO)cnc(C)c2O)N1
3: COC(=O)[C@@H]1Cc2c([nH]c3ccccc23)[C@@H](c2c(CO)cnc(C)c2O)N1
4: COC(=O)C1Cc2c([nH]c3ccccc23)C(c2c(CO)cnc(C)c2O)N1 (stereo not given)
Input: Sequence the entries by IC50, beginning with the highest number. Sort the labels as requested; that list is your answer.
Output: 2, 3, 4, 1
(2: 91 µM, 3: 22 µM, 4: 14 µM, 1: 8 µM)
